# one-hybrid fitness for binding NBS DNA values compiled below
B1: Caulobacter ParB omega fusion; a variant is named by its letters at X, in order, B8GW30 (parent)
chain: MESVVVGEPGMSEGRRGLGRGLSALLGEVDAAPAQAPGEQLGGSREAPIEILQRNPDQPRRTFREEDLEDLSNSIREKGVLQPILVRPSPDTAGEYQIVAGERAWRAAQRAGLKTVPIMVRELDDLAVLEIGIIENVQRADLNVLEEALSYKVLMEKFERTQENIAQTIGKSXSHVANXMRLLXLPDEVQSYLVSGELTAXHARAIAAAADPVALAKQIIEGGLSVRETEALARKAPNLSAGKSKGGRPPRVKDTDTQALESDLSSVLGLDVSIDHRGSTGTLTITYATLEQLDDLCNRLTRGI

Variants of: B1
Assay: one-hybrid fitness for binding NBS DNA (the Noc-binding site; scaled: cognate 1, non-cognate 0); higher = stronger binding
Details: with NBS DNA site
In all, about 81,000 sequences were measured (“one-hybrid fitness for binding NBS DNA”: median about -0.1, highest 2% from about 0.36 on). Many of the other results were omitted from the sample, so the highest values are more common in it than they were.

Sequence change	one-hybrid fitness for binding NBS DNA
QTKF	0.43
RSHD	≤ 0.2
GAQH	≤ 0.2
NHPC	≤ 0.2
SSEQ	≤ 0.2
RPHR	≤ 0.2
RSHN	≤ 0.2
SPAK	≤ 0.2
RCHR	0.586
MRQS	≤ 0.2
RFHR	0.305
